Where do these numbers come from? They come from ChEMBL document CHEMBL4673250.

target: E. coli GroEL/ES (Escherichia coli); experiment: Inhibition of Escherichia coli GroEL/ES-mediated refolding of the denatured malate dehydrogenase; type: protein-complex assay
Sequence (P0A6F5 whole entry, looked up): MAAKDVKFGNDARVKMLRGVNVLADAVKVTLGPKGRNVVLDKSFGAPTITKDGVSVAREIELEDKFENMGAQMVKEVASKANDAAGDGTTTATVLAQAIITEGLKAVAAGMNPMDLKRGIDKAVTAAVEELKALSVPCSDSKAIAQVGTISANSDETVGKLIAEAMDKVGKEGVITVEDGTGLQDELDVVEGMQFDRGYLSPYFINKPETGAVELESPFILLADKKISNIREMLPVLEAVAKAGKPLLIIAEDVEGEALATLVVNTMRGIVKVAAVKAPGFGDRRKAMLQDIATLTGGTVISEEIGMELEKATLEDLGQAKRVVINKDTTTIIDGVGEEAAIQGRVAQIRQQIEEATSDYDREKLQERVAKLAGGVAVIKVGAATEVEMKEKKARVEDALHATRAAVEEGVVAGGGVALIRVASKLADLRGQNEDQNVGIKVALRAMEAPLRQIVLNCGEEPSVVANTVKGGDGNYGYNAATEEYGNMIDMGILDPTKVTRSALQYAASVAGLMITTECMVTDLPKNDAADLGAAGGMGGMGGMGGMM
Measurement type: IC50

molecule=O=C(N/N=C/c1ccc([N+](=O)[O-])o1)c1ccc(Cl)s1 system_tested="E. coli GroEL/ES (Escherichia coli)" observed_result="88 µM"
molecule=O=C1CN(/N=C/c2ccc([N+](=O)[O-])o2)C(=O)N1 system_tested="E. coli GroEL/ES (Escherichia coli)" observed_result="> 100 µM"
molecule=O=C(N/N=C/c1ccc([N+](=O)[O-])o1)c1ccncc1 system_tested="E. coli GroEL/ES (Escherichia coli)" observed_result="> 100 µM"
molecule="O=C(N/N=C/c1ccc([N+](=O)[O-])o1)c1ccc(O)cc1 [NIFUROXAZIDE]" system_tested="E. coli GroEL/ES (Escherichia coli)" observed_result="> 100 µM"
molecule=O=C(N/N=C/c1ccc([N+](=O)[O-])o1)c1ccccc1 system_tested="E. coli GroEL/ES (Escherichia coli)" observed_result="> 100 µM"
molecule=COc1ccc(C(=O)N/N=C/c2ccc([N+](=O)[O-])o2)cc1 system_tested="E. coli GroEL/ES (Escherichia coli)" observed_result="69 µM"
molecule=CN(C)c1ccc(C(=O)N/N=C/c2ccc([N+](=O)[O-])o2)cc1 system_tested="E. coli GroEL/ES (Escherichia coli)" observed_result="26 µM"
molecule=O=C(N/N=C/c1ccc([N+](=O)[O-])o1)c1cccs1 system_tested="E. coli GroEL/ES (Escherichia coli)" observed_result="> 100 µM"

* * *

Listed below: selectivity ratio values for each entry.
experiment: Selectivity index, ratio of CC50 for human FHC cells to EC50 for Escherichia coli; type: toxicity; details: read-out: Ratio CC50/EC50
Measurement type: selectivity ratio

compound=O=C(N/N=C/c1ccc([N+](=O)[O-])o1)c1ccncc1 relation_symbol== observed_result=26
compound="O=C(N/N=C/c1ccc([N+](=O)[O-])o1)c1ccc(O)cc1 [NIFUROXAZIDE]" relation_symbol== observed_result=70
compound=O=C(N/N=C/c1ccc([N+](=O)[O-])o1)c1ccc(Cl)s1 relation_symbol== observed_result=119
compound=O=C(N/N=C/c1ccc([N+](=O)[O-])o1)c1cccs1 relation_symbol== observed_result=198
compound=CN(C)c1ccc(C(=O)N/N=C/c2ccc([N+](=O)[O-])o2)cc1 relation_symbol=> observed_result=10
compound=O=C(N/N=C/c1ccc([N+](=O)[O-])o1)c1ccccc1 relation_symbol=> observed_result=48

* * *

Listed below: CC50 values for each entry.
assay: Cytotoxicity against human FHs74Int cells assessed as reduction in cell viability incubated for 48 hrs by alamar blue assay; type: cell-based
Measurement type: CC50

compound="O=C1CN(/N=C/c2ccc([N+](=O)[O-])o2)C(=O)N1 [NITROFURANTOIN]" measurement_type=CC50 observed_result="> 100 µM"
compound=O=C(N/N=C/c1ccc([N+](=O)[O-])o1)c1ccccc1 measurement_type=CC50 observed_result="94 µM"
compound=O=C(N/N=C/c1ccc([N+](=O)[O-])o1)c1ccc(Cl)s1 measurement_type=CC50 observed_result="85 µM"
compound=O=C(N/N=C/c1ccc([N+](=O)[O-])o1)c1ccncc1 measurement_type=CC50 observed_result="90 µM"
compound="O=C(N/N=C/c1ccc([N+](=O)[O-])o1)c1ccc(O)cc1 [NIFUROXAZIDE]" measurement_type=CC50 observed_result="79 µM"
compound=COc1ccc(C(=O)N/N=C/c2ccc([N+](=O)[O-])o2)cc1 measurement_type=CC50 observed_result="75 µM"
compound=O=C(N/N=C/c1ccc([N+](=O)[O-])o1)c1cccs1 measurement_type=CC50 observed_result="71 µM"
compound=CN(C)c1ccc(C(=O)N/N=C/c2ccc([N+](=O)[O-])o2)cc1 measurement_type=CC50 observed_result="93 µM"

* * *

tested on: Enterococcus faecium; test: Antibacterial activity against Enterococcus faecium ATCC 19434 assessed as reduction in bacterial growth by serial dilution method; assay type: functional, organism-based
pEC50: −log10 of the molar value.
Measurement type: pEC50

compound="O=C(N/N=C/c1ccc([N+](=O)[O-])o1)c1ccc(O)cc1 [NIFUROXAZIDE]" measurement_type=pEC50 relation_symbol== observed_result=5.09
compound=O=C1CN(/N=C/c2ccc([N+](=O)[O-])o2)C(=O)N1 measurement_type=pEC50 relation_symbol== observed_result=4.42
compound=O=C(N/N=C/c1ccc([N+](=O)[O-])o1)c1ccc(Cl)s1 measurement_type=pEC50 relation_symbol== observed_result=4.92
compound=CN(C)c1ccc(C(=O)N/N=C/c2ccc([N+](=O)[O-])o2)cc1 measurement_type=pEC50 relation_symbol=< observed_result=4.00
compound=O=[N+]([O-])c1ccc(O)c2ncccc12 measurement_type=pEC50 relation_symbol== observed_result=4.74

* * *

tested on: FHC; assay: Cytotoxicity against human FHC cells assessed as reduction in cell viability incubated for 48 hrs by alamar blue assay; format: cell-based
Measurement type: CC50

compound=O=C(N/N=C/c1ccc([N+](=O)[O-])o1)c1ccc(Cl)s1 observed_result="53 µM"
compound=COc1ccc(C(=O)N/N=C/c2ccc([N+](=O)[O-])o2)cc1 observed_result="> 100 µM"
compound=CN(C)c1ccc(C(=O)N/N=C/c2ccc([N+](=O)[O-])o2)cc1 observed_result="> 100 µM"
compound=O=C(N/N=C/c1ccc([N+](=O)[O-])o1)c1ccncc1 observed_result="61 µM"
compound=O=C(N/N=C/c1ccc([N+](=O)[O-])o1)c1ccccc1 observed_result="> 100 µM"
compound=O=C1CN(/N=C/c2ccc([N+](=O)[O-])o2)C(=O)N1 observed_result="> 100 µM"
compound=O=C(N/N=C/c1ccc([N+](=O)[O-])o1)c1cccs1 observed_result="83 µM"
compound="O=C(N/N=C/c1ccc([N+](=O)[O-])o1)c1ccc(O)cc1 [NIFUROXAZIDE]" observed_result="61 µM"

* * *

Listed below: pEC50 values for each entry.
tested on: Enterococcus faecium; assay: Antibacterial activity against Enterococcus faecium ATCC 19434 assessed as reduction in bacterial growth by serial dilution method; assay type: functional, organism-based
pEC50: −log10 of the molar value.
Measurement type: pEC50

smiles_representation=COc1ccc(C(=O)N/N=C/c2ccc([N+](=O)[O-])o2)cc1 observed_result=4.66
smiles_representation=O=C(N/N=C/c1ccc([N+](=O)[O-])o1)c1cccs1 observed_result=4.62
smiles_representation=O=C(N/N=C/c1ccc([N+](=O)[O-])o1)c1ccccc1 observed_result=4.51
smiles_representation=O=C(N/N=C/c1ccc([N+](=O)[O-])o1)c1ccncc1 observed_result=4.89

* * *

test system: Acinetobacter baumannii; assay: Antibacterial activity against Acinetobacter baumannii ATCC 19606 assessed as reduction in bacterial growth by serial dilution method; assay type: functional, organism-based; conditions: ATCC 19606 = CIP 70.34 = JCM 6841
pEC50: −log10 of the molar value.
Measurement type: pEC50

compound="O=C1CN(/N=C/c2ccc([N+](=O)[O-])o2)C(=O)N1 [NITROFURANTOIN]" measurement_type=pEC50 relation_symbol=< observed_result=4.00
compound=O=C(N/N=C/c1ccc([N+](=O)[O-])o1)c1ccccc1 measurement_type=pEC50 relation_symbol=< observed_result=4.00
compound=COc1ccc(C(=O)N/N=C/c2ccc([N+](=O)[O-])o2)cc1 measurement_type=pEC50 relation_symbol=< observed_result=4.00
compound="O=C(N/N=C/c1ccc([N+](=O)[O-])o1)c1ccc(O)cc1 [NIFUROXAZIDE]" measurement_type=pEC50 relation_symbol=< observed_result=4.00
compound=CN(C)c1ccc(C(=O)N/N=C/c2ccc([N+](=O)[O-])o2)cc1 measurement_type=pEC50 relation_symbol=< observed_result=4.00
compound=O=C(N/N=C/c1ccc([N+](=O)[O-])o1)c1ccc(Cl)s1 measurement_type=pEC50 relation_symbol== observed_result=4.14
compound=O=C(N/N=C/c1ccc([N+](=O)[O-])o1)c1cccs1 measurement_type=pEC50 relation_symbol== observed_result=4.09
compound=O=C(N/N=C/c1ccc([N+](=O)[O-])o1)c1ccncc1 measurement_type=pEC50 relation_symbol== observed_result=4.27
compound="O=[N+]([O-])c1ccc(O)c2ncccc12 [NITROXOLINE]" measurement_type=pEC50 relation_symbol== observed_result=5.60

* * *

test: Selectivity index, ratio of CC50 for human FHs 74 cells to EC50 for Escherichia coli; type: toxicity; details: read-out: Ratio CC50/EC50
// returns Condition not met unless selectivity ratio is strictly below 90, in which case Condition met

smiles_representation=O=C(N/N=C/c1ccc([N+](=O)[O-])o1)c1cccs1 answer_label="Condition not met"
smiles_representation=O=C(N/N=C/c1ccc([N+](=O)[O-])o1)c1ccccc1 answer_label="Condition met"
smiles_representation=CN(C)c1ccc(C(=O)N/N=C/c2ccc([N+](=O)[O-])o2)cc1 answer_label="Condition met"
smiles_representation=O=C(N/N=C/c1ccc([N+](=O)[O-])o1)c1ccncc1 answer_label="Condition met"
smiles_representation=COc1ccc(C(=O)N/N=C/c2ccc([N+](=O)[O-])o2)cc1 answer_label="Condition met"
smiles_representation=O=C(N/N=C/c1ccc([N+](=O)[O-])o1)c1ccc(Cl)s1 answer_label="Condition not met"
